- protocol: soluble on expression in E. coli; label from the status in PepcDB or PDB records
metric.name: soluble on expression in E. coli

INSERT INTO results (residue_string, metric_name, reading) VALUES
  ('MGSDKIHHHHHHMSIYRKIDRNKIQFDFIVHKTGKNFFEDEILKLGGRIYRLPNKRKHPFKYKQEFLNVIKNYKIIHVHSVYAFTYYEVKWARQCQKSVILHSHNSDAKLLRKIIHYLFKHLQNHYVSVRLSPSKQAAKWMFNEGHDKVVYLYNGFDTTKFQFDMNSRIEIREQLGLANNDYIIGCVGRLDWQKDPIYLLRLFEKLKANDNAYKLIFIGDGSYRQTLERETHQKGLVNDVIFTGSVSNVPEYLSALDIFVLPTRYEGLGISLIEAQINGLPVFTNKDVPKEAVINQNMYLLDKGDSELWVDAINKELNVINLKKRKVNLSDFNQYNIETVVKKLQNIYLQLLS', 'soluble on expression in E. coli', 'not soluble'),
  ('MAHHHHHHMNGMRAYNLGSRRYHDVLRLQEAIFRKKIDRQMRYIRGDKSARLIPNVVLLVEHSSPVYTIGRRDTSNGIKAGCAAEVVKTRRGGGVTFHGPGQVTMYPIVNVQVLWKQCTASDKPRSPIEWFSSVLEQAMINVAGEYNIPAHRGRVGVWSDSWGDVAPRKMGFVGLQLGNWVSMHGAGLNVSNNLLYFNDIVMCEMPNEAATSLVEELRLRGLSGAEPTPHVIAPRLLHHFLLSMQQQESVVNTELVDLSIDGSWERSILCELE', 'soluble on expression in E. coli', 'not soluble');

* * *

- protocol: soluble on expression in E. coli; label from the status in PepcDB or PDB records
metric.name: soluble on expression in E. coli

Some solved entries appear below for comparison.
INSERT INTO assay_data (residue_string, reading) VALUES
  ('GPGSMSKLISDAIAAEDASKWNTSYELYPPRSEKAEEDMMKVLVPNFMHQSPVFLDLTWGAGGRTSGTTMRLCKDLQHAHPDTPINMHITCTNTPKGLIKETLEFAKTHGIRNILALRGDPPSGEEFQVDPDGFACARDLVRYIRDTYGDYFCVSVAGYPEGHPSRIAENGTISHEDHQKELEYLKEKVDAGASFIITQLFYDASLYVKFVKRCREVGITVPILAGLLPITTYAGFVRMVSLCKTSVPSDVKKRVEELKENPDGLKEYGVEQCVQMIECIRASGLDYHHLHFYTLNNSAQIFKILKRLNALVE', 'soluble'),
  ('TSTDAAGGDSYRVGINQLVQHPALDAATTGFKEAFEEAGVDVTFDEQNANGEQGTALTISQQFASDNLDLVLAVATPAAQATAQNITDIPVLFTAVTDAVSAELVDSNEAPGGNVTGTSDIAPIEQQLELLQQLVPDAKSIGIVYASGEVNSQVQVDEVTKAAEPLGLSVNTQTVTTVNEIQQAVEALGDVDVIYVPTDNMVVSGISSLVQVAEQKQIPVIGAESGTVEGGALATLGIDYTELGRQTGEMALRILQDGEDPATMPVETATEFTYVINEDAAERQGVEIPQEILDKAERV', 'not soluble'),
  ('MMGCLPTKQVGRSTHSLNPREAVALAAETSFTVNEVEALYDLFRKLSNSIIKDGLIHKEEFHLALFRNKKTNLFVDRVFDLFDQKGNGVIEFDEFVRSLSVFHPDAPEEQKAGFAFKLYDLRQTGFIERHELKEMVLALLDESDLNITSDAVEMIVDRTFDQADTKGDERIDQEEWNEFVKNNPYVLRNMTLPYLKDLTMVFPSFVIHSEVSEADMVA', 'soluble'),
  ('MGSDKIHHHHHHMIRPSLAHTIISEVRKLLDEDLIVVDPSGTIIASTDKERMGSFHEGALISYNERRRLIITQDDESKLTGVKAGINLPIFFQDQVVGVIGITGDPSKVSAYGELLRKMTELLIKEKYYAEQLEWHARTLEAFVFDWVQQKEWTRSFINQAKMLHIDLTVSRQVIIGYYGQHNRERIQREWWIDVSQTFTRQKDDLLVRWGNDRFVMLLANKAEGKERAVHSIQQIQKYIQNKYRHSLSFGVGQSVCPQELYRSFEQAERALAVAVRTQSIVFEEDLRLDMCLQDVKKQTRVDFVQRTLEPIMKDEDLLETLKTFIARNQSFKETAETLHIHINTLHYRLKKMEDKTGLNPRDFHDLTTLYLGLLFLEDNLKN', 'not soluble');

Now look at this entry.
// recorded soluble on expression in E. coli for MISVFDMFKVGIGPSSSHTVGPMKAGKQFIDDLIKRNQFEQTTEIHVDVYGSLSMTGRGHSTDIAIIMGLAGYLPHNVDIDMISGFIEKVKQTALLPINVGQKIVKFDFENNLIFHRTFLKLHENGMTITALDENRTELYRQTYYSIGGGFIVDEAHFGK : not soluble
